Tested on: HOP-62
Test: NCI tumour cell line growth inhibition, 48 h
The campaign covered roughly 56,000 sequences. About 3,400 (6.1%) were called active. A selection follows. Entries with a potency or affinity are not part of this list.
quantity: GI50

# substance, quantity, value-measured
measured = [
    ("[Bis(aminomethyl)tetramethylenesilane]dichloropaltinum(II), CHEMBL2146205", "GI50", "39.7 µM"),
    ("[Bis(aminomethyl)dimethylsilane]dichloroplatinum (II), CHEMBL2146201", "GI50", "35.3 µM"),
    ("cis-Bis[[(trimethylsilyl)methyl]amino]tetrachloroplatinum(IV), CHEMBL2146191", "GI50", "20.6 µM"),
    ("[Bis(aminomethyl)diethylsilane]tetrachloroplatinum(IV), CHEMBL2146203", "GI50", "1.7 µM"),
    ("[Bis(aminomethyl)pentamethylenesilane]tetrachloropaltinum(IV), CHEMBL2146204", "GI50", "1.55 µM"),
]

# input for lookup
Q) GET /values?readout=GI50&item= [Bis(aminomethyl)tetramethylenesilane]tetrachloropaltinum(IV), CHEMBL2146189
A) 6.32 µM
